Target: insulin-like growth factor-1 (IGF-1) (UniProt P05019 49-118)
Sequence (P05019 49-118 limits assumed): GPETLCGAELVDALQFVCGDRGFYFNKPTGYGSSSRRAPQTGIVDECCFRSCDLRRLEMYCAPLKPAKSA
Experiment: cell-based or functional assay
Positions of bridges follow the written chain, without caps; N, C: chain ends. Non-standard residues stand in square brackets, D forms with d. No end group written: not given here. d2Nal = N[C@H](Cc1ccc2ccccc2c1)C(=O)O
# % Inhibition at 100 µM, p42 listing for each entry below
Please respond with the number in % and leave the unit unwritten.

GFB-136 (designed binder, also: 3 GDDD loops and 1 GDGY loop on But-Calix scaffold, linker to a chain's N/C-terminus via 3-aminomethyl-5-aminobenzamide) peptide 1: GDDD peptide 2: GDGY :: 15
[d2Nal]DGD (designed binder, linker N-C via 3‑aminomethyl‑5‑aminobenzamide; also: four loops joined to But-Calix calix[4]arene scaffold) [GFB-118] :: 16.4
GFB-134 (designed binder, also: 3 GDGY loops and 1 GDDY loop on But-Calix scaffold, linker to a chain's N/C-terminus via 3-aminomethyl-5-aminobenzamide) peptide 1: GDGY peptide 2: GDDY :: 4.9

Please look at the following binder next.
## Input Identify the reported % Inhibition at 100 µM, p42 for the following entry. GDDD (designed binder, linker N-C via 3‑aminomethyl‑5‑aminobenzamide; also: loops on DPM-2 scaffold) [GFB-129]
## Output 2.8
